Experiment: Cytotoxicity in the HIV-1 assay (MTS cell viability)
Settings: human, CEM-SS cells (uninfected, cells plus peptide only)
result-type: viability at 10 micrograms per ml (%)

>>> val("CC(C)C[C@H](NC(=O)[C@H](Cc1ccccc1)NC(=O)CNC(=O)CNC(=O)[C@@H](N)Cc1ccc(O)cc1)C(=O)N[C@@H](CCCNC(=N)N)C(=O)N[C@@H](CCCNC(=N)N)C(=O)N[C@@H](CCC(N)=O)C(=O)N[C@@H](Cc1ccccc1)C(=O)N[C@@H](CCCCN)C(=O)N[C@H](C(=O)N[C@H](C(=O)N[C@H](C(=O)O)[C@@H](C)O)C(C)C)C(C)C")
37
